Test: Half life in rat liver microsomes
Type: ADME, Microsome
In this section, each of the molecules is paired with its reported half-life.
Answer with a number only, understood to be in min.

INSERT INTO results (compound_structure_string, numeric_result) VALUES
  ('Cc1c(Br)c(C(=O)N2CCN(CC(=O)c3ccc(F)cc3)CC2)nn1C', 29);

## Task Consider the molecule shown here: Cn1cc(Br)c(C(=O)N2CCN(CCc3ccc(F)cc3F)CC2)n1 What is its recorded half-life?
## Result 9

## Task Consider the molecule shown here: Cn1cc(Br)c(C(=O)N2CCN(CCc3ccc(F)cc3)CC2)n1 What is its recorded half-life?
## Result 14

###

Assay: Half life in Sprague-Dawley rat at 3 mg/kg, po
Type: ADME, organism-based
Parameters: dose 3 mg/kg, route oral
Settings: in vivo
observed-property: half-life (h)
Answer with a number only, understood to be in h.

## Task Consider the molecule shown here: Cn1cc(Cl)c(C(=O)N2CCN(CC(=O)c3ccc(F)cc3)CC2)n1 What is its recorded half-life?
## Result 2

###

In this section, each of the compounds is paired with its reported Ki.
Biological target: 5-hydroxytryptamine receptor 2A (Homo sapiens, UniProt P28223)
Sequence (P28223 whole entry): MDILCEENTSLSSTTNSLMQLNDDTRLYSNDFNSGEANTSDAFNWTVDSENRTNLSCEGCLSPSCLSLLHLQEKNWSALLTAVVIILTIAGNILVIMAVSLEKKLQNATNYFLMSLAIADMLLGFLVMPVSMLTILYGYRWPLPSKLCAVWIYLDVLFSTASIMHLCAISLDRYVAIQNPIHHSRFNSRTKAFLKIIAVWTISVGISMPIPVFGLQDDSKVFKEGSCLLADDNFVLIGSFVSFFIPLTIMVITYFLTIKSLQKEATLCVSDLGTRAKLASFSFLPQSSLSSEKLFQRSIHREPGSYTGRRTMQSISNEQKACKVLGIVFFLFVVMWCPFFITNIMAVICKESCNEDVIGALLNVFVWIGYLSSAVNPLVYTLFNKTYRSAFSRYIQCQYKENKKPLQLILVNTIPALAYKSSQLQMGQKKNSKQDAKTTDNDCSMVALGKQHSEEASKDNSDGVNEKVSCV
Answer with a number only, understood to be in nM.

INSERT INTO results (compound, assayed_target, observed_property, numeric_result) VALUES
  ('Cn1cc(Br)c(C(=O)N2CCN(CC(=O)c3ccc(F)cc3F)CC2)n1', '5-hydroxytryptamine receptor 2A (Homo sapiens, UniProt P28223)', 'Ki', 70),
  ('CCn1cc(Cl)c(C(=O)N2CCN(CC(=O)c3ccc(F)cc3)CC2)n1', '5-hydroxytryptamine receptor 2A (Homo sapiens, UniProt P28223)', 'Ki', 2.6),
  ('Cn1cc(Br)c(C(=O)N2CCN(CCc3ccc(F)cc3)CC2)n1', '5-hydroxytryptamine receptor 2A (Homo sapiens, UniProt P28223)', 'Ki', 3.6),
  ('N#Cc1c[nH]c2c(C(=O)N3CCN(CCc4ccc(F)cc4)CC3)cccc12 [PRUVANSERIN]', '5-hydroxytryptamine receptor 2A (Homo sapiens, UniProt P28223)', 'Ki', 0.48),
  ('Cn1cc(Br)c(C(=O)N2CCN(CC(O)c3ccc(F)cc3)CC2)n1 (centres undefined)', '5-hydroxytryptamine receptor 2A (Homo sapiens, UniProt P28223)', 'Ki', 368),
  ('Cn1cc(Cl)c(C(=O)N2CCN(CC(=O)c3ccc(F)cc3)CC2)n1', '5-hydroxytryptamine receptor 2A (Homo sapiens, UniProt P28223)', 'Ki', 3.7);

## Task Consider the compound shown here: Cn1cc(C(F)(F)F)c(C(=O)N2CCN(CC(=O)c3ccc(F)cc3)CC2)n1 What is its recorded Ki?
## Result 28

## Task Consider the compound shown here: Cn1cc(Br)c(C(=O)N2CCN(CC(=O)c3ccc(C(F)(F)F)cc3)CC2)n1 What is its recorded Ki?
## Result 865

Source: ChEMBL document CHEMBL1212923
